# experimentalTarget: HLA-A*03:01
# methodNotes: IEDB peptide-MHC binding, purified MHC/direct/fluorescence; filed as Kd, often an IC50 or EC50 that approximates it; bounds were set here for any values at or beyond the usual limits of such assays
# experimentalParameters: source organism: Bacillus anthracis
measuredAttribute: Kd

> print(dat)
   sequenceentry  reportedresult
1      GTLTKGVFK       0.0549 µM
2      RTHLGFIFQ         ≥ 20 µM
3      WFREDRSPV         ≥ 20 µM

Switching to the query record.
Answer with reported Kd of MSDIFASEV
≥ 20 µM

----------
# experimentalTarget: HLA-B*57:01
# methodNotes: IEDB peptide-MHC binding, purified MHC/competitive/fluorescence; filed as Kd, often an IC50 or EC50 that approximates it; bounds were set here for any values at or beyond the usual limits of such assays
# experimentalParameters: source organism: Vibrio vulnificus YJ016
pKd: −log10 of the molar value.
measuredAttribute: pKd

> print(dat)
   sequenceentry  measuredattribute  reportedresult
1      DFISMYFPW                pKd          ≤ 4.70

# return recorded pKd for entry SVMSTFFWE
≤ 4.70

Source listed as the Immune Epitope Database (IEDB).
